Kindly state abundance fitness for each of the entries shown.
B1: Ventral anterior homeobox 1, residues 102 to 157; numbered along this chain, Q5SQQ9 (parent)
chain: RTRTSFTAEQLYRLEMEFQRCQYVVGRERTELARQLNLSETQVKVWFQNRRTKQKK

Variants of: B1
Assay: abundance fitness (aPCA) (normalised: wild type 0, dead -1); higher = more abundant; growth selection in yeast, the domain comes from the species named
Conditions: Homo sapiens
One number for each entry.

K55F | -0.229

Lab note: each variant below needs its abundance fitness filled in.
1. K55V
2. Q22S
3. E15N
4. R20D
5. V45G
6. T52L
7. W46L
8. A8C

Return:
1: 0.119; 2: -0.087; 3: -0.564; 4: 0.149; 5: -0.159; 6: -0.141; 7: -0.717; 8: -0.212

Lab note: each variant below needs its abundance fitness filled in.
1. Q42K
2. L11E

Return:
1: -0.473; 2: 0.308
